Listing of entries alongside the reported TGI.
- Tested on: SNB-75 CNS
- experimentalProtocol: NCI tumour cell line growth inhibition, 48 h
Write the value in µM as a bare number.

Before answering, review these 4 worked examples.
1. O=[N+]([O-])c1ccc2c(c1)nc(Cc1ccc(Cl)cc1)n2C[C@@H]1CCCN2CCCCC12 (stereo partly drawn); 28.3
2. C/C1=C/C(=O)O[C@@H]2C[C@@H](CC[C@H](C)/C=C\C=C\CC1)O[C@@](OCCc1ccccc1)([C@@H]1CSC(=O)N1)C2; 0.0597
3. c1cc[c]([Sn]([S]c2cccc3cccnc23)([S]c2cccc3cccnc23)[c]2ccccc2)cc1; 1.16
4. COC1CC(CC2CCC(C)C(C(C)C(=O)O)O2)OC2(OC(C)(C3CCC(C)(C4OC(C5OC(O)(CO)C(C)CC5C)CC4C)O3)CC2C)C1C (stereo not drawn); 8.7

In: For CC1(C)CCC[C@]2(C)[C@@H]1CC[C@@]13O[C@@H]1C1=C(CO)C(=O)OC1=C[C@@H]23 , what is its reported TGI?
Out: 88.4
